meta.source: the supplement of paper PMC13380429

- Tested on: Vero E6 infected with SARS-CoV-2
- Protocol notes: inhibition of SARS-CoV-2 cytopathic effect; higher = more antiviral protection, active = above 15
- Particulars: 833.33 nM; 48 h
# Lookup of reported inhibition of SARS-CoV-2 cytopathic effect keyed by entry
Reported metric: inhibition of SARS-CoV-2 cytopathic effect (%)

Molecule | Unit abbrev | Val
COc1cccc(-c2ccc([C@@H](Oc3cc(-c4ccc(C[C@H](N)C(=O)O)cc4)nc(N)n3)C(F)(F)F)cc2)c1 | % | 0.52
CNC1CC(c2ccc(Cl)c(Cl)c2)c2ccccc21 (stereo unspecified) [indatraline] | % | -3.42
CNC(=O)c1ccc(N2C(=S)N(c3cnc(C#N)c(C(F)(F)F)c3)C(=O)C23CCC3)cc1F [apalutamide] | % | 0.68
O=C(c1ccc(F)cc1)C1CCN(CCCCc2ccccc2)CC1 [4-(4-fluorobenzoyl)-1-(4-phenylbutyl)-piperidine] | % | 1.25
CCC[C@H](N[C@@H](C)C(=O)N1[C@H](C(=O)O)C[C@@H]2CCCC[C@@H]21)C(=O)OCC [perindopril] | % | 0.99
Fc1ccc(C(OCCN2CCN(CCCc3ccccc3)CC2)c2ccc(F)cc2)cc1 [vanoxerine] | % | -3.95
Cc1cc2ncc(C(=O)NCC(C)(C)NCC(=O)N3CCC[C@H]3C#N)cn2n1 [anagliptin] | % | 0.84
CCNCCCNCCCCNCCCNCC | % | 3.4
Cc1cc(NC(=O)NCCN2CCC(O)(Cc3ccccc3)CC2)c2ccccc2n1 [palosuran] | % | 2.2
CCCN1CCCC(c2cccc(O)c2)C1 (stereo in doubt) [preclamol] | % | 1.02
O=S(=O)(O)c1cc(O)ccc1O [etamsylate] | % | 0.23
Cc1cccc(C)c1NC(=O)/N=C1\CCCN1C [xilobam] | % | -0.83
CCC(C)(CN(C)C)OC(=O)c1ccccc1 (stereo unspecified) [amyleine] | % | -8.42
C[C@@H]1CN(Cc2ccc(F)cc2)[C@@H](C)CN1C(=O)c1cc2c(C(=O)C(=O)N(C)C)cn(C)c2cc1Cl [talmapimod] | % | -0.03
CO[C@H]1O[C@@H]2O[C@@]3(C)CC[C@H]4[C@H](C)CC[C@@H]([C@H]1C)[C@@]24OO3 [artemether] | % | -2.72
C/N=C(/NC#N)NCCSCc1csc(NC(=N)N)n1 [tiotidine] | % | -3.05
C[N+](C)(C)CC(=O)O [betaine] | % | 1.31
CCN(CC)CCOC(=O)C1(c2ccc([N+](=O)[O-])cc2)CCCC1 [nitrocaramiphen] | % | -0.19
C=C1/C(=C\C=C2/CCC[C@]3(C)[C@@H]([C@H](C)OCCC(C)(C)O)CC[C@@H]23)C[C@@H](O)C[C@@H]1O [maxacalcitol] | % | 0.61
CN(C)CCCO[C@@H]1[C@H]2OC(C)(C)O[C@H]2O[C@@H]1[C@H](O)CO [amiprilose] | % | -4.16
O=C(O)c1ccc(S(=O)(=O)N(Cc2ccc(OC(F)(F)F)cc2)c2ncc(C(F)(F)F)cc2Cl)cc1 | % | 1.99
NS(=O)(=O)c1cccc2c1c([N+](=O)[O-])cc1nc(O)c(O)nc12 | % | 1.7
Cc1ccc(NC(=O)c2ccc(CN3CC[C@H](N(C)C)C3)c(C(F)(F)F)c2)cc1Nc1nccc(-c2cncnc2)n1 [bafetinib] | % | -3.15
Cc1ccc2nc(NCCN)c3ncc(C)n3c2c1 | % | 0.69
N=C(N)NC(=O)c1cnn(-c2cccc3ncccc23)c1C1CC1 [zoniporide] | % | 3.55
Oc1ccc(Cl)cc1Cc1cc(Cl)ccc1O [dichlorophen] | % | -2.86
COc1cc(C(=O)NCc2ccc(OCCN(C)C)cc2)cc(OC)c1OC [trimethobenzamide] | % | -1.81
CN1CCN(CC(=O)N2c3ccccc3C(=O)Nc3cccnc32)CC1 [pirenzepine] | % | -0.6
Cc1ccc(C(=O)N(CCCN)[C@@H](c2oc3cc(Cl)ccc3c(=O)c2Cc2ccccc2)C(C)C)cc1 | % | -2.79
CCCCOc1ccc(OCCCN2CCOCC2)cc1 [pramoxine] | % | -1.83
CC(C)C(N)C(=O)O (stereo in doubt) [L-valine] | % | -0.11
[N-]=[N+]=CC(=O)CC[C@H](N)C(=O)O [6-diazo-5-oxo-L-norleucine] | % | 0.6
COc1ccc2[nH]c(SCc3ncc(C)c(OC)c3C)nc2c1 [omeprazole-sulfide] | % | -15.3
N[C@@H](CC(=O)N1CCn2c(nnc2C(F)(F)F)C1)Cc1cc(F)c(F)cc1F [sitagliptin] | % | 3.7
O=c1[nH]c2ccccc2n1C1CCN(CCOc2ccccc2)CC1 [oxiperomide] | % | -0.51
CCn1c(=O)c2c(nc(/C=C/c3ccc(OC)c(OC)c3)n2C)n(CC)c1=O [istradefylline] | % | -0.33
